Recorded values, source ChEMBL document CHEMBL1139510.

Consider the following molecules; for each one, report its Koff2.
Target: Albumin (Homo sapiens)
Assay: Dissociation rate constant for the interaction between the compound and serum albumin
Format: ADME
Answers are plain numbers, in s⁻¹.

Field: example entries. Status: answers known.
molecule	systemTested	readoutValue
CC(C)CN(C[C@@H](O)[C@H](Cc1ccccc1)NC(=O)O[C@H]1CCOC1)S(=O)(=O)c1ccc(N)cc1	Albumin (Homo sapiens)	0.068
CC(=O)O[C@H]1C(=O)[C@@]2(C)C([C@H](OC(=O)c3ccccc3)[C@]3(O)C[C@H](OC(=O)[C@H](O)[C@@H](NC(=O)c4ccccc4)c4ccccc4)C(C)=C1C3(C)C)[C@]1(OC(C)=O)CO[C@@H]1C[C@@H]2OC(=O)CCC(=O)O (some centres undefined)	Albumin (Homo sapiens)	0.033
CC(C)(C)NC(=O)[C@@H]1C[C@@H]2CCCC[C@@H]2CN1C[C@@H](O)[C@H](Cc1ccccc1)NC(=O)[C@H](CC(N)=O)NC(=O)c1ccc2ccccc2n1	Albumin (Homo sapiens)	0.085

Below: the item to evaluate.
Task: Can you look up the measured Koff2 of `COC(=O)N[C@H](C(=O)N[C@@H](Cc1ccccc1)[C@@H](O)CN(Cc1ccc(-c2ccccn2)cc1)NC(=O)[C@@H](NC(=O)OC)C(C)(C)C)C(C)(C)C` for me?
Output: 0.025

###

Answer each item with its documented kon.
Target: Albumin (Homo sapiens, UniProt P02768)
Sequence (P02768 whole entry): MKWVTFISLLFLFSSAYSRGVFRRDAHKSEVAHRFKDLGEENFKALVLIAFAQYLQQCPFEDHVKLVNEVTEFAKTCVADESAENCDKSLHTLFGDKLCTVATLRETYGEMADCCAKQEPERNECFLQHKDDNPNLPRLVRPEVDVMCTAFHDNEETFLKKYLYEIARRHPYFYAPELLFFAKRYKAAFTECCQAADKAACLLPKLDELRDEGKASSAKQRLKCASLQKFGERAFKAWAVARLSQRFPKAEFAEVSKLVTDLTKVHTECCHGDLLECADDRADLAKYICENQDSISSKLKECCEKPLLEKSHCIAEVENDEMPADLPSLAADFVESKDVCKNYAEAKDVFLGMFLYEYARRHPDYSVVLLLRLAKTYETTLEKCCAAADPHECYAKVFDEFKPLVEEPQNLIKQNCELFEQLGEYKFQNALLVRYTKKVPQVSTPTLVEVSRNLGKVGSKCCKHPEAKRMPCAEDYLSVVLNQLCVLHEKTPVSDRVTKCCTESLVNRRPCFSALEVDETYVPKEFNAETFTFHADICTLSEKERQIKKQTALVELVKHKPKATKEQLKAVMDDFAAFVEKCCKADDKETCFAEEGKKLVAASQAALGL
Assay: Association rate constant for the interaction between the compound and serum albumin
Assay type: ADME
Conditions: read-out: Kon2
Answers are plain numbers, in M⁻¹ s⁻¹.

Batch of 8 compounds: report kon for each.
1. CC(=O)O[C@@]12CO[C@@H]1C[C@H](O)[C@@]1(C)C(=O)[C@H](O)C3=C(C)[C@@H](OC(=O)[C@H](O)[C@@H](NC(=O)OC(C)(C)C)c4ccccc4)C[C@@](O)([C@@H](OC(=O)c4ccccc4)[C@H]21)C3(C)C.O.O.O [DOCETAXEL]
2. Cc1c(O)cccc1C(=O)N[C@@H](CSc1ccccc1)[C@H](O)CN1C[C@H]2CCCC[C@H]2C[C@H]1C(=O)NC(C)(C)C
3. CC(=O)O[C@H]1C(=O)[C@@]2(C)C([C@H](OC(=O)c3ccccc3)[C@]3(O)C[C@H](OC(=O)[C@H](O)[C@@H](NC(=O)c4ccccc4)c4ccccc4)C(C)=C1C3(C)C)[C@]1(OC(C)=O)CO[C@@H]1C[C@@H]2OC(=O)CCC(=O)O (stereo partly drawn)
4. CC(=O)O[C@@]1(C2/C(C)=C(/O)C(=O)C3=C(C)[C@@H](OC(=O)[C@H](O)[C@H](CC(C)C)NC(=O)OC(C)(C)C)C[C@@](O)([C@H]2OC(=O)c2ccccc2)C3(C)C)CO[C@@H]1CCO (stereo partly drawn)
5. CC(C)(C)NC(=O)[C@@H]1C[C@@H]2CCCC[C@@H]2CN1C[C@@H](O)[C@H](Cc1ccccc1)NC(=O)[C@H](CC(N)=O)NC(=O)c1ccc2ccccc2n1
6. Cc1cccc(C)c1OCC(=O)N[C@@H](Cc1ccccc1)[C@@H](O)C[C@H](Cc1ccccc1)NC(=O)[C@H](C(C)C)N1CCCNC1=O [LOPINAVIR]
7. CC(C)CN(C[C@@H](O)[C@H](Cc1ccccc1)NC(=O)O[C@H]1CCOC1)S(=O)(=O)c1ccc(N)cc1
8. COC(=O)N[C@H](C(=O)N[C@@H](Cc1ccccc1)[C@@H](O)CN(Cc1ccc(-c2ccccn2)cc1)NC(=O)[C@@H](NC(=O)OC)C(C)(C)C)C(C)(C)C [ATAZANAVIR]

Output:
[43.7, 12.6, 36.4, 33.1, 282, 10.1, 208, 41.8]
